Quick reference: Emax values relative to U69593 of the listed items.
tested target: KOR (Homo sapiens, UniProt P41145)
Sequence (P41145 whole entry): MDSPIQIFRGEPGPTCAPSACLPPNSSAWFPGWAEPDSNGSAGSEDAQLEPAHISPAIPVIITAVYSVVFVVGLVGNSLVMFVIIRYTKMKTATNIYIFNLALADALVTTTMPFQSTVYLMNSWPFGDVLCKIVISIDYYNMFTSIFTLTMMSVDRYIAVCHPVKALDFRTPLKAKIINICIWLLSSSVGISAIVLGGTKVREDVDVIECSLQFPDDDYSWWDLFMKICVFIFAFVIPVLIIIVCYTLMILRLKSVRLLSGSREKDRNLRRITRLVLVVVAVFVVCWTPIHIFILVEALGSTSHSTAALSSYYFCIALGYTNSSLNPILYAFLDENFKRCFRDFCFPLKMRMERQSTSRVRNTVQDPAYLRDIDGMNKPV
assay: [35S]GTPγS binding functional agonist assay on membranes of CHO cells expressing hKOR (reference agonist U69593)
Format: biochemical
Design: expressed in transfected cells; host or cells: CHO cells, stably transfected; crude membrane fractions
protocol conditions: [35S]GTPγS data-fit top relative to reference agonist U69593
Express the result in % but write the number alone.

Example entries begin here.
O=C(Nc1ccc(Cl)c(C(F)(F)F)c1)[C@@H]1CC=C[C@@H]2CCN(c3ccccc3)C(=O)[C@@H]21 (racemic) [compound 10825]
82
O=C(NCc1ccc(Cl)c(C(F)(F)F)c1)[C@@H]1CC=C[C@@H]2CCN(c3ccccc3)C(=O)[C@@H]21 (racemic) [compound 11862]
81
O=C(Nc1ccc(Cl)cc1C(F)(F)F)[C@@H]1CC=C[C@@H]2CCN(c3ccccc3)C(=O)[C@@H]21 (racemic) [compound 11864]
119
O=C(Nc1cccc(Cl)c1)[C@@H]1CC=C[C@@H]2CCN(CC3CCCCC3)C(=O)[C@@H]21 (racemic) [compound 11888]
70

Ask: Consider the compound O=C(Nc1cc(C(F)(F)F)ccc1Cl)C1CC=CC2CCN(C3CCCCC3)C(=O)C21 (racemic) [compound 11837] and give its measured Emax values relative to U69593.
Reply: 106

Ask: Report Emax values relative to U69593 for Cc1cc(NC(=O)[C@@H]2CC=C[C@@H]3CCN(c4ccccc4)C(=O)[C@@H]32)ccc1Cl (racemic) [compound 11866] please.
Reply: 123
